# Tested on: SF-539 CNS
# procedureSummary: NCI-60 one-dose screen, 48 h (100 = growth as untreated, 0 = no growth, -100 = all killed)
# experimentalSetup: 10 µM unless noted
This is part of a sample that, as a whole, favours compounds with a hit. Of some 83,000 tested, about 20% had one in any assay.
Each record here notes measured growth.
valueType: growth (%)

| molecule | result |
| --- | --- |
| CCN1CCN(c2cc(-c3cn[nH]c3-c3cc(C)cc(OC)c3)nc(-c3cccnc3)n2)CC1 | 83 |
| Clc1cccc(Cc2cn3cc(-c4ccccc4)nc3s2)c1 | 41.6 |
| CCOC(=O)C1=C(C)N2C(=NC3=C(CCC/C3=C\c3ccc(Cl)cc3)C2c2ccc(Cl)cc2)S1 (stereo not given) | 41.3 |
| COc1cc(/C=C/C(=O)c2c(-c3ccc(Cl)cc3)nc3sc(C)nn23)cc(OC)c1OC | 95.8 |
| Cc1ccc([N+](=O)[O-])cc1NC(=O)Nc1cccc(F)c1 | 85.1 |
